- study system: SRC (Homo sapiens, UniProt P12931)
- Sequence (P12931 2-536): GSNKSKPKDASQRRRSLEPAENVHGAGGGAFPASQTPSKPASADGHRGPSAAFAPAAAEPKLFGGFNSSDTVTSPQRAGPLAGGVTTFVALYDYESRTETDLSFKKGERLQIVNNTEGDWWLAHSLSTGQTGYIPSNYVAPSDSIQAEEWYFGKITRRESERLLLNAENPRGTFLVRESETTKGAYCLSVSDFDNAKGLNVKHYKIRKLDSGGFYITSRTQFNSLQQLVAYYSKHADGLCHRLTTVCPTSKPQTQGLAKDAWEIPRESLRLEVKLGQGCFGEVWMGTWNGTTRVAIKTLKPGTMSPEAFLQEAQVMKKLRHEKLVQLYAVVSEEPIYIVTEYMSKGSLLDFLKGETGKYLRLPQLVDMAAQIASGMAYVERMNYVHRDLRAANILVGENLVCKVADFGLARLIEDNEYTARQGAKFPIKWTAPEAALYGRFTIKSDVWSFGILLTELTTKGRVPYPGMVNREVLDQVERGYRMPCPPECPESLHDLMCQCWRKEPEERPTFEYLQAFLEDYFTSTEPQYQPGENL
- test method notes: bio-layer interferometry (biotinylated SRC on SSA sensor, Octet K2)
- Assay type: binding
property: pKd
Hey, just a heads up that pKd is the negative log base 10 of the concentration in molar.

Fetch value of pKd on SRC (Homo sapiens, UniProt P12931) for O=c1cc(-c2ccc(O)c(O)c2)oc2cc(O)cc(O)c12 [Luteolin] .
5.77

###

- study system: UniProt P31749
- Sequence (P31749 whole entry): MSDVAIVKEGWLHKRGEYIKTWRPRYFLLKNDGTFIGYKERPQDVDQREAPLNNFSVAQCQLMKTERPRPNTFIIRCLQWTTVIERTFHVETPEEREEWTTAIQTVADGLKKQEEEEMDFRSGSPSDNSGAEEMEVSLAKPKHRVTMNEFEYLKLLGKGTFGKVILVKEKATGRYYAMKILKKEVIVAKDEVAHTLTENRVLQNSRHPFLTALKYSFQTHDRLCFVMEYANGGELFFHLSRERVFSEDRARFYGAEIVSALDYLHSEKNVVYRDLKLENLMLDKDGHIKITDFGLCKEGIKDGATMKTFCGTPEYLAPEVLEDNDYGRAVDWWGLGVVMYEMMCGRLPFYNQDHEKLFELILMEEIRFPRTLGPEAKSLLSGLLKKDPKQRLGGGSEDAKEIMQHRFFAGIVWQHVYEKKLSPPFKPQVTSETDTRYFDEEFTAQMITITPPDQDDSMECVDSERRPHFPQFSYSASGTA
property: Kd (µM)
Give the quantity in µM, number only.

Fetch value of Kd on UniProt P31749 for `O=c1cc(-c2ccc(O)c(O)c2)oc2cc(O)cc(O)c12` .
7.86
